The measured values listed here are drawn from PubChem BioAssay AID1963860.

test system: CN0375-F725-PDC KRAS spheroid viability; test: Anticancer human tumor CN0375-F725-PDC patient-derived colon carcinoma cell line growth inhibition [KRAS2]; conditions: second compound 1 µM; first compound 0.316 µM; active compounds read low; spheroids with HUVEC and MSC;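 note: spheroids exposed to agents for 7 days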
Measured Metric: viability, T/C (%)

>>> measured("Cn1nccc1Nc1nccc(-c2cc3c(s2)C(C)(C)N(CCN2CCOCC2)C3=O)n1 + C=CC(=O)N1CCN(c2nc(=O)n(-c3c(C)ccnc3C(C)C)c3nc(-c4c(O)cccc4F)c(F)cc23)C(C)C1")
66
>>> measured("Cn1nccc1Nc1nccc(-c2cc3c(s2)C(C)(C)N(CCN2CCOCC2)C3=O)n1 + C=CC(=O)N1CCN(c2nc(OCC3CCCN3C)nc3c2CCN(c2cccc4cccc(C)c24)C3)CC1CC#N")
52.4
>>> measured("CCNC(=O)CC1N=C(c2ccc(Cl)cc2)c2cc(OC)ccc2-n2c(C)nnc21 (stereo not given) + CC1OCC2(CCN(c3cnc(Sc4ccnc(N)c4Cl)c(N)n3)CC2)C1N")
70.5
>>> measured("O=C(c1cc(Cc2n[nH]c(=O)c3ccccc23)ccc1F)N1CCN(C(=O)C2CC2)CC1 + CC1OCC2(CCN(c3cnc(Sc4ccnc(N)c4Cl)c(N)n3)CC2)C1N")
93.6
>>> measured("O=C(c1cc(Cc2n[nH]c(=O)c3ccccc23)ccc1F)N1CCN(C(=O)C2CC2)CC1 + C=CC(=O)N1CCN(c2nc(OCC3CCCN3C)nc3c2CCN(c2cccc4cccc(C)c24)C3)CC1CC#N")
97.9
